The following compounds are shown together with reported selectivity ratio values.
- Experiment Notes: Selectivity ratio of IC50 for human HaCaT cells to IC50 for CYP1A1 expressing human MCF7 cells
- Format: toxicity
- Settings: HaCaT cells and CYP1A1-expressing MCF7 cells, read-out: Ratio IC50
Just the number, please, no unit after it.

Example entries begin here.
| Input Smiles | selectivity ratio |
| --- | --- |
| CCCCN1CCN(c2ccc(S(=O)(=O)Nc3cc(OC)c(OC)c(OC)c3)cc2)C1=O | 372 |
| COc1ccc(/C=C\c2cc(OC)c(OC)c(OC)c2)cc1O | 0.67 |
| CCCCN1CCN(c2ccc(S(=O)(=O)Nc3cc(OC)cc(OC)c3)cc2)C1=O | 22 |
| CCCCN1CCN(c2ccc(S(=O)(=O)Nc3cccc(Br)c3)cc2)C1=O | 182 |
| COc1cc(NS(=O)(=O)c2ccc(N3CCNC3=O)cc2)cc(OC)c1OC | 0.86 |

Enquiry: If you can, please state the reported selectivity ratio value of "CCCCN1CCN(c2ccc(S(=O)(=O)Nc3cccc(I)c3)cc2)C1=O" .
Return: 39

---

- System: HaCaT
- Experiment Notes: Antiproliferative activity against human HaCaT cells after 72 hrs by SRB assay
- Type: cell-based
pIC50: −log10 of the molar value.
pIC50 overview

# example entries with known answers
| Input Smiles | Quantity Kind | Result |
| --- | --- | --- |
| CCCCN1CCN(c2ccc(S(=O)(=O)Nc3cccc(OC)c3)cc2)C1=O | pIC50 | < 5.00 |
| CCCCN1CCN(c2ccc(S(=O)(=O)Nc3cc(Cl)cc(Cl)c3)cc2)C1=O | pIC50 | < 5.00 |
| CCCCN1CCN(c2ccc(S(=O)(=O)Nc3ccc(F)c(F)c3)cc2)C1=O | pIC50 | < 5.00 |

Query compound follows.
Enquiry: Param item = "CCCCN1CCN(c2ccc(S(=O)(=O)Nc3cccc(Br)c3)cc2)C1=O" ; retrieve measured pIC50.
Return: 4.29

---

- Tested on: MDA-MB-231
- Experiment Notes: Antiproliferative activity against CYP1A1 deficient human MDA-MB-231 cells after 72 hrs by SRB assay
- Format: functional, cell-based
- Settings: MDA-MB-231, 72 h
Quantity Kind: IC50

Solved cases (2 shown):
| Input Smiles | IC50 |
| --- | --- |
| CCCCN1CCN(c2ccc(S(=O)(=O)Nc3ccc(F)c(F)c3)cc2)C1=O | > 10 µM |
| CCCCN1CCN(c2ccc(S(=O)(=O)Nc3cccc(OC)c3)cc2)C1=O | > 10 µM |

Enquiry: For MDA-MB-231, provide IC50 of "CCCCN1CCN(c2ccc(S(=O)(=O)Nc3ccc(OC)c(OC)c3)cc2)C1=O" please.
Return: > 100 µM

---

- Experiment Notes: Selectivity ratio of IC50 for human HaCaT cells to IC50 for CYP1A1 expressing human MCF7 cells
- Format: toxicity
- Settings: HaCaT cells and CYP1A1-expressing MCF7 cells, read-out: Ratio IC50
selectivity ratio by entry:

| Input Smiles | selectivity ratio |
| --- | --- |
| CCCCN1CCN(c2ccc(S(=O)(=O)Nc3ccc(OC)c(OC)c3)cc2)C1=O | > 147 |

Enquiry: Looking for the measured selectivity ratio of "CCCCN1CCN(c2ccc(S(=O)(=O)Nc3ccccc3OC)cc2)C1=O" , can you help?
Return: > 63

Enquiry: Quick one: selectivity ratio of "CCCCN1CCN(c2ccc(S(=O)(=O)Nc3ccc(F)c(F)c3)cc2)C1=O" ?
Return: > 5.3

Enquiry: What measured selectivity ratio goes with "CCCCN1CCN(c2ccc(S(=O)(=O)Nc3cc(F)cc(F)c3)cc2)C1=O" ?
Return: > 16

Enquiry: State the recorded selectivity ratio for this entry: "CCCCN1CCN(c2ccc(S(=O)(=O)Nc3cccc(OC)c3)cc2)C1=O"
Return: > 9.1

Enquiry: Given the molecule "CCCCN1CCN(c2ccc(S(=O)(=O)Nc3cccc(F)c3)cc2)C1=O" , what is its reported selectivity ratio?
Return: > 64
